Known cell viability of a selection of compounds
# System: SEM cells
# test_description: cell viability relative to DMSO control; higher = less cytotoxic
# protocol_conditions: RPMI 5 mM glucose + 10% dialyzed FBS; 48 h; 0.00702 µM
Write the answer as a number in %, unit excluded.

compound: C=CC1=C(C(=O)O)N2C(=O)[C@@H](NC(=O)/C(=N\O)c3csc(N)n3)[C@H]2SC1
cell viability (%): 27.4

compound: O=C(O)c1ccc(-n2nc(-c3ccccc3O)nc2-c2ccccc2O)cc1
cell viability (%): 91

compound: O=C(NC[C@H](O)CN1CCc2ccccc2C1)c1cc(NC2COC2)ncn1
cell viability (%): 100

compound: C[C@H]1C[C@H]2[C@@H]3CCC4=CC(=O)C=C[C@]4(C)[C@@]3(F)[C@@H](O)C[C@]2(C)[C@@]1(O)C(=O)CO
cell viability (%): 114

compound: CCn1c(-c2nonc2N)nc2cncc(CNC3CCNCC3)c21
cell viability (%): 113

compound: CN(C/C=C/C#CC(C)(C)C)Cc1cccc2ccccc12
cell viability (%): 85.9

compound: c1cc(CN2CCCNCCNCCCNCC2)ccc1CN1CCCNCCNCCCNCC1
cell viability (%): 94.2

compound: CC(C)n1nc(-c2ccc3oc(N)nc3c2)c2c(N)ncnc21
cell viability (%): 70.9

compound: C[S+](=O)([O-])N(Cc1ccco1)CC(O)Cn1c2ccccc2c2ccccc21 (configuration not stated)
cell viability (%): 108

compound: CCCCCCCc1ccc(CCc2cccc(O)c2C(=O)O)cc1
cell viability (%): 135

Input: Please look up its cell viability: `CC(=O)Nc1ccc([C@H](C)C(=O)Nc2ncc(C(C)C)s2)cc1`
Output: 97.4

Input: Reported cell viability for `NC1=NC=C(C=C1)C2=CC=C3N=CC\4=C(N(C(=O)\C=C4)C5=CC(=CC=C5)C(F)(F)F)C3=C2` : what is it?
Output: 46.2

Input: Return reported cell viability; argument: `O=C1C[C@@H](c2ccc(O)cc2)Oc2cc(O)cc(O)c21`
Output: 130

Input: Request the reported cell viability associated with `CO[C@H]1C[C@@H]2CC[C@@H](C)[C@@](O)(O2)C(=O)C(=O)N2CCCC[C@H]2C(=O)O[C@H]([C@H](C)C[C@@H]2CC[C@@H](OC(=O)C(C)(CO)CO)[C@H](OC)C2)CC(=O)[C@H](C)/C=C(\C)[C@@H](O)[C@@H](OC)C(=O)[C@H](C)C[C@H](C)/C=C/C=C/C=C/1C`
Output: 91.2
